Property: MIC; scope: individual substances
# Tested on: E. coli DH5α
# TEST PROTOCOL: Antibacterial activity: MIC and growth curve against E. coli DH5α in 96-well plate
# Format: cell-based
# TEST CONDITIONS: minimal inhibitory concentration against E. coli DH5α; 96-well plate, 5×10^5 CFU/mL, 37° C., judged after 8 h
TEST READOUT: MIC (mg/L)

SUBSTANCE: PRT1415 (PRATCLDQCSGHGTFLPDTGLCSCDPSWTGHDCS; listed as Homo sapiens)
ASSAY VALUE: 25
//
SUBSTANCE: PRT1056 (DQDDCAPVGCSMYARCISEGEDATCQCLKGFAGDGKLCS; listed as Homo sapiens)
ASSAY VALUE: 50
//
SUBSTANCE: PRT523 (CSCGRRLCEEMTGQCRCPPRTVRPQCEVCETHSFSFHPMAGCEG; listed as Homo sapiens)
ASSAY VALUE: 12.5
//
SUBSTANCE: PRT414 (DIDECESGIHNCLPDFICQNTLGSFRCRPKLQCKSGFIQDALGNCI; listed as Homo sapiens)
ASSAY VALUE: 12.5
//
SUBSTANCE: PRT554 (CNCESDFTDGTCEDLTGRCYCRPNFSGERCDVCAEGFTGFPSCYPT; listed as Homo sapiens)
ASSAY VALUE: 12.5
//
SUBSTANCE: PRT692 (DVDECATGGRCQHGECANTRGGYTCVCPDGFLLDSSRSSCI; listed as Homo sapiens)
ASSAY VALUE: 50
//
SUBSTANCE: PRT848 (CQCNNRSASCDALTGACLNCQENSKGNHCEECKEGFYQSPDATKECLR; listed as Homo sapiens)
ASSAY VALUE: 25
//
SUBSTANCE: PRT67 (EIDLCYSDPCGANGRCRSREGGYTCECFEDFTGEHCE; listed as Homo sapiens)
ASSAY VALUE: 12.5
//
SUBSTANCE: PRT512 (CACPLISSSNNFSPSCVAEGLDDYRCTACPRGYEGQYCERCAPGYTGSPGNPGGSCQE; listed as Homo sapiens)
ASSAY VALUE: 50
//
SUBSTANCE: PRT1033 (LYVPCAPSPCVNGGTCRQTGDFTFECNCLPETVRRGTE; listed as Homo sapiens)
ASSAY VALUE: 50
//
SUBSTANCE: PRT28 (VDACLLNPCQNQGSCRHLPGAPHGYTCDCVGGYFGHHCE; listed as Homo sapiens)
ASSAY VALUE: 50
//
SUBSTANCE: PRT461 (DVDECAWDAHLCREGQRCVNLLGSYRCLPDCGPGFRVADGAGCE; listed as Homo sapiens)
ASSAY VALUE: 50
//
SUBSTANCE: PRT990 (LDDACVSNPCHEDAICDTNPVNGRAICTCPPGFTGGACD; listed as Homo sapiens)
ASSAY VALUE: 12.5
//
SUBSTANCE: PRT726 (LPPPCRCMHGGNCYFDETDLPKCKCPSGYTGKYCE; listed as Homo sapiens)
ASSAY VALUE: 12.5
//
SUBSTANCE: PRT1131 (RMPGCQHGTCHQPWQCICHSGWAGKFCD; listed as Homo sapiens)
ASSAY VALUE: 50
//
SUBSTANCE: PRT727 (EFDDCQIWGICDQKCESRPGRHLCHCEEGYILERGQYCK; listed as Homo sapiens)
ASSAY VALUE: 12.5

* * *

# Test system: E. coli DH5α
# TEST PROTOCOL: Antibacterial activity: MIC and growth curve against E. coli DH5α in 96-well plate
# Format: cell-based
# TEST CONDITIONS: minimal inhibitory concentration against E. coli DH5α; 96-well plate, 5×10^5 CFU/mL, 37° C., judged after 8 h
# Protocol: 1. E. coli DH5α was exemplified. E. coli DH5α was streaked and cultured on LB solid medium. […] 4. […] Samples were taken every 30 min, the absorbance values were determined at 600 nm wavelength under a ultra violet spectrophotometer, and an inhibition curve was plotted. […] According to the experimental procedures in Example 14, the minimal inhibitory concentrations (MIC, μg/mL) of the other human-originated EGF domain proteins (PRT2 to PRT1498 in Table 1) for E. coli DH5α were determined.

SUBSTANCE: PRT805 (FGQNCSQDCPCHHGGQCDHVTGQCHCTAGYMGDRCQ; listed as Homo sapiens)
SYSTEM: E. coli DH5α
UNIT TEXT: µg/mL
MIC: 12.5
//
SUBSTANCE: PRT1251 (CAFVCADCGSGHCDFQSGRCLCSPGVHGPHCN; listed as Homo sapiens)
SYSTEM: E. coli DH5α
UNIT TEXT: µg/mL
MIC: 100
//
SUBSTANCE: PRT1451 (EARWCSECHSNATCTEDEAVTTCTCQEGFTGDGLTCV; listed as Homo sapiens)
SYSTEM: E. coli DH5α
UNIT TEXT: µg/mL
MIC: 25
//
SUBSTANCE: PRT558 (CTCDPRGALDQLCGAGGLCRCRPGYTGTACQECSPGFHGFPSCVP; listed as Homo sapiens)
SYSTEM: E. coli DH5α
UNIT TEXT: µg/mL
MIC: 12.5
//
SUBSTANCE: PRT252 (TAACTNTSCSGHGECVETINNYTCKCDPGFSGLKCE; listed as Homo sapiens)
SYSTEM: E. coli DH5α
UNIT TEXT: µg/mL
MIC: 25
//
SUBSTANCE: PRT142 (PCPGRYLRAGKCAELPNCLDDLGGFACECATGFELGKDGRSCV; listed as Homo sapiens)
SYSTEM: E. coli DH5α
UNIT TEXT: µg/mL
MIC: 12.5
//
SUBSTANCE: PRT450 (KCLCPLGFLLANDSKTCEDIDE; listed as Homo sapiens)
SYSTEM: E. coli DH5α
UNIT TEXT: µg/mL
MIC: 12.5
//
SUBSTANCE: PRT791 (SQECQCHNGGTCDAATGQCHCSPGYTGERCQ; listed as Homo sapiens)
SYSTEM: E. coli DH5α
UNIT TEXT: µg/mL
MIC: 50

* * *

# Test system: E. coli DH5α
# TEST PROTOCOL: Antibacterial activity: MIC and growth curve against E. coli DH5α in 96-well plate
# Assay type: cell-based
# TEST CONDITIONS: minimal inhibitory concentration against E. coli DH5α; 96-well plate, 5×10^5 CFU/mL, 37° C., judged after 8 h
TEST READOUT: MIC (µg/mL)

SUBSTANCE: PRT517 (CQCFGHAESCDDVTGECLNCKDHTGGPYCDKCLPGFYGEPTKGTSEDCQP; listed as Homo sapiens)
SYSTEM: E. coli DH5α
ASSAY VALUE: 25

SUBSTANCE: PRT242 (CEPGCKFGECVGPNKCRCFPGYTGKTC; listed as Homo sapiens)
SYSTEM: E. coli DH5α
ASSAY VALUE: 12.5

SUBSTANCE: PRT438 (DIDECALGRHTCHAGQDCDNTIGSYRCVVRCGSGFRRTSDGLSCQ; listed as Homo sapiens)
SYSTEM: E. coli DH5α
ASSAY VALUE: 25

SUBSTANCE: PRT1222 (SVNYCECNPCFNGGSCQSGVDSYYCHCPFGVFGKHCE; listed as Homo sapiens)
SYSTEM: E. coli DH5α
ASSAY VALUE: 12.5

SUBSTANCE: PRT1133 (KAGPCEQAGSPCRNGGQCQDDQGFALNFTCRCLVGFVGARCE; listed as Homo sapiens)
SYSTEM: E. coli DH5α
ASSAY VALUE: 12.5

SUBSTANCE: PRT614 (CNCNLYGTMKQQSSCNPVTGQCECLPHVTGQDCGACDPGFYNLQSGQGCER; listed as Homo sapiens)
SYSTEM: E. coli DH5α
ASSAY VALUE: 50

SUBSTANCE: PRT369 (DVDECLSSPCVSGVCRNLAGSYTCKCGPGSRLDPSGTFCL; listed as Homo sapiens)
SYSTEM: E. coli DH5α
ASSAY VALUE: 50

* * *

# Tested on: Pseudomonas aeruginosa
# TEST PROTOCOL: MIC against Gram-negative bacteria: Pseudomonas aeruginosa
# Format: cell-based
# TEST CONDITIONS: Pseudomonas aeruginosa; 96-well plate, 5×10^5 CFU/mL, 37° C., 10 h
Listed here: items and their measured MIC against P. aeruginosa.

SUBSTANCE: PRT1196 (DVDLCEPSPCRNGARCYNLEGDYYCACPDDFGGKNCS; listed as Homo sapiens)
UNIT TEXT: µg/mL
MIC against P. aeruginosa: 12.5
//
SUBSTANCE: PRT1216 (YPDACKRSPCQHGGSCTGLPSGGYQCTCLSQFTGRNCE; listed as Homo sapiens)
UNIT TEXT: µg/mL
MIC against P. aeruginosa: 50
//
SUBSTANCE: PRT1320 (PSNPCSHPDRGGCSENAECVPGSLGTHHCTCHKGWSGDGRVCV; listed as Homo sapiens)
UNIT TEXT: µg/mL
MIC against P. aeruginosa: 25
//
SUBSTANCE: PRT1324 (PITSCLEQTGKCHPLASCQSTSSGVWSCVCQEGYEGDGFL; listed as Homo sapiens)
UNIT TEXT: µg/mL
MIC against P. aeruginosa: 50
